assayed target: Proprotein convertase subtilisin/kexin type 9 (Homo sapiens)
Sequence (Q8NBP7 31-152 limits assumed): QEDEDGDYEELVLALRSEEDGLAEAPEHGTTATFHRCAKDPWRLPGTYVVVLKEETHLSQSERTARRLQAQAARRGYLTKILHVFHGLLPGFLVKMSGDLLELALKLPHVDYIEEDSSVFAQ
Sequence (Q8NBP7 153-692 limits assumed): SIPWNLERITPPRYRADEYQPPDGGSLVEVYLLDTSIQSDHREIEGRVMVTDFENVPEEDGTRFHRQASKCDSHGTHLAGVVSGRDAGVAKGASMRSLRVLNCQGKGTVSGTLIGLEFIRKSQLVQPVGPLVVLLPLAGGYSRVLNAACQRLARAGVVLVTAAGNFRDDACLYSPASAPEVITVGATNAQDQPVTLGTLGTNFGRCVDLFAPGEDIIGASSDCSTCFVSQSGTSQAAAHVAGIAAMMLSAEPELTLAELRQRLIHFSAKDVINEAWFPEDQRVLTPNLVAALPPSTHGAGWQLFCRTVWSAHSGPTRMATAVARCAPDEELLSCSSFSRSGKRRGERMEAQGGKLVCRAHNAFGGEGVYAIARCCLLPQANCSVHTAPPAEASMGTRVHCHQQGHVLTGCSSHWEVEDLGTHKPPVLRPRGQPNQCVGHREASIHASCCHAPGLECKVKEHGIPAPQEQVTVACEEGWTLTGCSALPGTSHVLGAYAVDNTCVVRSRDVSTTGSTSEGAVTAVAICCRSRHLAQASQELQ
method summary: PCSK9 Inhibition Assay
pIC50: −log10 of the molar value.
outcome measure: pIC50

Sample answers from the record:
So for Ac-TVFTSWEEYLL-NH2 [TVFTSWEEYLL] , the logged pIC50 turned out to be 5.00

So for Ac-TVFTSWEEYLLW-NH2 [TVFTSWEEYLLW] , the logged pIC50 turned out to be 5.21

[I] Ac-VFTSWEEYLLWV-NH2 [VFTSWEEYLLWV]
[II] Ac-TVFTSWEEYL-NH2 [TVFTSWEEYL]
[III] Ac-TVFTSWEEYLLWV-NH2 [TVFTSWEEYLLWV]
[IV] Ac-VVFTSWQDYLFWV-NH2 [VVFTSWQDYLFWV]
input: Write the entries in order, lowest recorded pIC50 first. The reply should contain the labels ordered as requested.
output: IV, II, I, III
